Target: Poly (ADP-ribose) synthetase (Bos taurus, UniProt P18493)
Sequence (P18493 whole entry): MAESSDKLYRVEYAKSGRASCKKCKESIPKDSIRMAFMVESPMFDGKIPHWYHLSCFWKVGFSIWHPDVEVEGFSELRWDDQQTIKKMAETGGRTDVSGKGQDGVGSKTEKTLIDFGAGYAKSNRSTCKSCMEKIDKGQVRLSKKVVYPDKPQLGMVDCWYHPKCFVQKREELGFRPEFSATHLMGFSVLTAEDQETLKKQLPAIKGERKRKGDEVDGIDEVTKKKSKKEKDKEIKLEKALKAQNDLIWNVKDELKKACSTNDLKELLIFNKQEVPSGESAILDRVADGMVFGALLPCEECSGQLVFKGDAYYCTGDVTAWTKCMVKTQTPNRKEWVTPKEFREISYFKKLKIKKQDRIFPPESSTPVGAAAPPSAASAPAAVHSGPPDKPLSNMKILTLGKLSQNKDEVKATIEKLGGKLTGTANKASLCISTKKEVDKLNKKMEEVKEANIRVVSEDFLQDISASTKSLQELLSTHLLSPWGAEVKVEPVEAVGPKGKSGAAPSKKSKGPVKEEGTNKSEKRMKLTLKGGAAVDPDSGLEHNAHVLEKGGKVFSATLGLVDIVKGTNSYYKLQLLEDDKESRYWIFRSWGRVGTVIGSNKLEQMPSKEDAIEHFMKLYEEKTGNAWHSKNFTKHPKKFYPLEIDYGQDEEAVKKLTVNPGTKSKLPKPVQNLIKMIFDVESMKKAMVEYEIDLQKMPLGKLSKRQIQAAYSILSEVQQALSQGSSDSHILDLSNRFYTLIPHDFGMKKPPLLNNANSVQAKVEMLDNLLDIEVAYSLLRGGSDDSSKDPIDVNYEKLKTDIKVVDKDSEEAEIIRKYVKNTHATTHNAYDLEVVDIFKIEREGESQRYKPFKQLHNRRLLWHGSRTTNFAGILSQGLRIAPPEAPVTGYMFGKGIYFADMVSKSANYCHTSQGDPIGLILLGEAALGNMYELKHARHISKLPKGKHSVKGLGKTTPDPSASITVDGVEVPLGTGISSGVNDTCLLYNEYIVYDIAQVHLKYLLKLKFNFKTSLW
pIC50: −log10 of the molar value.
measured attribute: pIC50

1. Cc1cccc2c1CCNC2=O [Reference Compound] : 6.96

(a) O=C1NCCc2ncccc21 [Compound 13, 7,8-Dihydro-1,6-naphthyridin-5(6H)-one]
(b) Cc1cc2ncccc2c(=O)[nH]1 [Compound 4, 7-Methyl-1,6-naphthyridine-5 (6H) -one]
(c) CN1CCCc2c1cc[nH]c2=O [Compound 8]
Task item: Hi! Can you put these in order of pIC50, lowest number first? API: response body holds the labels in the requested order.
Reply: a, b, c
(a: 5.60, b: 5.92, c: 6.29)

###

Consider the following IC50 values measured on Poly (ADP-ribose) synthetase (Bos taurus, UniProt P18493).

1. O=c1[nH]ccc2c1ccc[n+]2[O-] [Compound 9, 1,6-Naphthyridine-5(6H)-one, 1-oxide] : 10 to 100 µM
2. C[n+]1cccc2c(=O)[nH]ccc21 : 10 to 100 µM
3. O=c1[nH]cc(Br)c2ncccc12 : 1 to 10 µM

Here is another compound to look at.
Just so you know, measured IC50 for "O=c1[nH]ccc2c1CCCN2" came out at 1 to 10 µM

Taken from patent US5391554A.
